system: 233499-124-R-J3-PDC complex spheroid growth; experiment: Anticancer human tumor 233499-124-R-J3-PDC patient-derived colon adenocarcinoma cell line growth inhibition [AhR]; settings: second compound 10 µM; first compound 0.00949 µM; stronger effect = lower value;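 also: spheroids exposed to agents for seven days before reading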
Each record here notes measured viability, T/C.

COMPOUND | viability, T/C, %
Nc1ncn(C2CC(O)C(CO)S2)c(=O)n1 (configuration not stated) + CC(CO)NC(=O)c1cc(-c2ccc(Cl)cc2)nn(-c2cnn(C)c2)c1=O | 101
O=C(C=Cn1cnc(-c2cc(C(F)(F)F)cc(C(F)(F)F)c2)n1)NNc1cnccn1 + Cc1ccccc1N=Nc1ccc(NC(=O)c2ccnn2C)c(C)c1 | 101
CCc1c2c(nc3ccc(O)cc13)-c1cc3c(c(=O)n1C2)COC(=O)[C@]3(O)CC + Cc1cncc(-c2nc(NCCc3c[nH]c4ccccc34)c3ncn(C(C)C)c3n2)c1 | 21.5
CCN(c1cc(-c2ccc(CN3CCOCC3)cc2)cc(C(=O)NCc2c(C)cc(C)[nH]c2=O)c1C)C1CCOCC1 + CC(CO)NC(=O)c1cc(-c2ccc(Cl)cc2)nn(-c2cnn(C)c2)c1=O | 80.9
CC(C)CC(NC(=O)C(Cc1ccccc1)NC(=O)c1cnccn1)B(O)O (configuration not stated) + CC(CO)NC(=O)c1cc(-c2ccc(Cl)cc2)nn(-c2cnn(C)c2)c1=O | 17.2
CCN(c1cc(-c2ccc(CN3CCOCC3)cc2)cc(C(=O)NCc2c(C)cc(C)[nH]c2=O)c1C)C1CCOCC1 + Cc1cncc(-c2nc(NCCc3c[nH]c4ccccc34)c3ncn(C(C)C)c3n2)c1 | 16.1
Nc1ncn(C2CC(O)C(CO)S2)c(=O)n1 (configuration not stated) + Cc1cncc(-c2nc(NCCc3c[nH]c4ccccc34)c3ncn(C(C)C)c3n2)c1 | 14.4
O=C(C=Cn1cnc(-c2cc(C(F)(F)F)cc(C(F)(F)F)c2)n1)NNc1cnccn1 + Cc1cncc(-c2nc(NCCc3c[nH]c4ccccc34)c3ncn(C(C)C)c3n2)c1 | 21.2
CC(C)CC(NC(=O)C(Cc1ccccc1)NC(=O)c1cnccn1)B(O)O (configuration not stated) + Cc1ccccc1N=Nc1ccc(NC(=O)c2ccnn2C)c(C)c1 | 105
CCc1c2c(nc3ccc(O)cc13)-c1cc3c(c(=O)n1C2)COC(=O)[C@]3(O)CC + CC(CO)NC(=O)c1cc(-c2ccc(Cl)cc2)nn(-c2cnn(C)c2)c1=O | 77.9
O=C(C=Cn1cnc(-c2cc(C(F)(F)F)cc(C(F)(F)F)c2)n1)NNc1cnccn1 + CC(CO)NC(=O)c1cc(-c2ccc(Cl)cc2)nn(-c2cnn(C)c2)c1=O | 93.1
CC(C)CC(NC(=O)C(Cc1ccccc1)NC(=O)c1cnccn1)B(O)O (configuration not stated) + Cc1cncc(-c2nc(NCCc3c[nH]c4ccccc34)c3ncn(C(C)C)c3n2)c1 | 4.74
